# Measured target: Phosphatidylinositol 4,5-bisphosphate 3-kinase catalytic subunit alpha isoform (Homo sapiens, UniProt P42336)
# Sequence (P42336 whole entry, canonical isoform): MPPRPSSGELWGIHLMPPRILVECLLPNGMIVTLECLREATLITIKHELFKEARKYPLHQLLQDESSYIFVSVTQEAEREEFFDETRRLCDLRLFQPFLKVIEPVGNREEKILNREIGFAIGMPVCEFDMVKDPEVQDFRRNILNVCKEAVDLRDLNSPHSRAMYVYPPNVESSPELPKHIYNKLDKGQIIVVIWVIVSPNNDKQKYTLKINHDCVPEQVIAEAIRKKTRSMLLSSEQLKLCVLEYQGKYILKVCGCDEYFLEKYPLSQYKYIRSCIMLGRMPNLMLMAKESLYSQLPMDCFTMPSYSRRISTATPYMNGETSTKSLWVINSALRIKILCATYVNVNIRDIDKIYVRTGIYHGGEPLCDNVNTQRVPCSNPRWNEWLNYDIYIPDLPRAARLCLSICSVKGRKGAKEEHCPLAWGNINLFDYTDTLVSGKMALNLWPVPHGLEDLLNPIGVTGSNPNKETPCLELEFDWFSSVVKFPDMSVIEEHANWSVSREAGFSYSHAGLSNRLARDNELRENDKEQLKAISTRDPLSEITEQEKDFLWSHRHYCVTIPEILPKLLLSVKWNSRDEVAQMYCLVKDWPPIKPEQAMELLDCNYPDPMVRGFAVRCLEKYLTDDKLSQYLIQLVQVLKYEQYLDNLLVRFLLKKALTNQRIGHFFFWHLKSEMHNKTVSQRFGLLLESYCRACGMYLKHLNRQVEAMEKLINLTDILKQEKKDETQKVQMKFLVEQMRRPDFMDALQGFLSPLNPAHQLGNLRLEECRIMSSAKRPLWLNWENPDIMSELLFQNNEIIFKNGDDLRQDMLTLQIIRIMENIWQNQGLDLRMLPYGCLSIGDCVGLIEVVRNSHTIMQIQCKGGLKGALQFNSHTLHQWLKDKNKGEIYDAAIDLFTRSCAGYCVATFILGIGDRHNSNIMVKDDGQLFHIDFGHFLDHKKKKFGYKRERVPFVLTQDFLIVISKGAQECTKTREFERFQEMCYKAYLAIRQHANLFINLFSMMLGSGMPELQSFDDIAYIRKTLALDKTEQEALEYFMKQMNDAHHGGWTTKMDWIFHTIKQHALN
pIC50: −log10 of the molar value.
Property: pIC50

INSERT INTO results (item_smiles, meas_value) VALUES
  ('O=C1NC(=O)/C(=C/c2ccc3nccc(-c4ccncc4)c3c2)S1', 9.40);

* * *

# Measured target: RAC-gamma serine/threonine-protein kinase (Homo sapiens, UniProt Q9Y243)
# Sequence (Q9Y243 whole entry): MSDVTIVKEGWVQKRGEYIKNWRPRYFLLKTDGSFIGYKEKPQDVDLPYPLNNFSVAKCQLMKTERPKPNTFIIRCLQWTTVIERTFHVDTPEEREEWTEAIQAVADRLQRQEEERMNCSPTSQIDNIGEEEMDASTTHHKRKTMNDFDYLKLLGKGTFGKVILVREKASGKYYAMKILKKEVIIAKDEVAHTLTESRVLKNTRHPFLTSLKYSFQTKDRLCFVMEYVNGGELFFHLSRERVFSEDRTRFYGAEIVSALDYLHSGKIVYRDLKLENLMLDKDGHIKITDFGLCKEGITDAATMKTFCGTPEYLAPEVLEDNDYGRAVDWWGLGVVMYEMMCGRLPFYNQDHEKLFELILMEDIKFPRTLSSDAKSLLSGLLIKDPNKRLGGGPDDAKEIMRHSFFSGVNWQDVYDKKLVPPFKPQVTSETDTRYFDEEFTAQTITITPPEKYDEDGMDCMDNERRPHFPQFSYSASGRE
pIC50: −log10 of the molar value.
Property: pIC50

INSERT INTO measurements (item_smiles, meas_value) VALUES
  ('Clc1ccc(C2(c3ccc(-c4cn[nH]c4)cc3)CCNCC2)cc1', 7.33);
